- Test system: Pseudomonas aeruginosa ATCC 27853
- assay_summary: ≥ marks a high value that may be exact or a test limit, other limits are often not marked, values filed in µg/mL are converted to µM
property: MIC

Example results:
- sample_smiles: "CC(C)C[C@H](NC(=O)[C@@H](N)Cc1c[nH]c2ccccc12)C(=O)N[C@@H](CCCCN)C(=O)N[C@@H](CCCCN)C(=O)N[C@@H](Cc1c[nH]c2ccccc12)C(N)=O"
  test_target: "Pseudomonas aeruginosa ATCC 27853"
  reported_result: "> 105 µM"
- sample_smiles: "CC[C@H](C)[C@H](NC(=O)[C@H](CCSC)NC(=O)[C@H](C)NC(=O)[C@@H]1CCCN1C(=O)[C@@H](NC(=O)[C@@H](NC(=O)[C@H](CCCCN)NC(=O)[C@@H](NC(=O)[C@H](CC(C)C)NC(=O)CNC(=O)CNC(=O)[C@H](CC(C)C)NC(=O)[C@@H](N)Cc1ccccc1)[C@@H](C)CC)[C@@H](C)CC)C(C)C)C(=O)N[C@@H](CS)C(=O)N[C@@H](C)C(=O)N[C@H](C(=O)N[C@H](C(=O)N[C@@H](CCCCN)C(=O)N[C@@H](CCCCN)C(=O)O)[C@@H](C)O)C(C)C"
  test_target: "Pseudomonas aeruginosa ATCC 27853"
  reported_result: "63.9 µM"
- sample_smiles: "CC[C@H](C)[C@H](NC(=O)CNC(=O)[C@H](CO)NC(=O)[C@H](CCCN=C(N)N)NC(=O)[C@@H](NC(=O)CNC(=O)[C@H](Cc1c[nH]c2ccccc12)NC(=O)[C@H](CC(C)C)NC(=O)[C@H](CC(=O)O)NC(=O)[C@@H](NC(=O)[C@H](CCCCN)NC(=O)[C@H](CC(C)C)NC(=O)[C@@H](N)CCC(N)=O)C(C)C)[C@@H](C)O)C(N)=O"
  test_target: "Pseudomonas aeruginosa ATCC 27853"
  reported_result: "> 100 µM"
- sample_smiles: "NCCCC[C@H](NC(=O)[C@H](CCCCN)NC(=O)[C@H](CCCCN)NC(=O)[C@H](CCCN=C(N)N)NC(=O)[C@H](CCCN=C(N)N)NC(=O)[C@H](Cc1ccc(O)cc1)NC(=O)[C@@H](N)CCCN=C(N)N)C(N)=O"
  test_target: "Pseudomonas aeruginosa ATCC 27853"
  reported_result: "> 100 µM"
- sample_smiles: "CC[C@H](C)[C@H](NC(=O)[C@H](Cc1ccc(O)cc1)NC(=O)[C@H](CCC(N)=O)NC(=O)[C@H](CC(C)C)NC(=O)[C@H](C)NC(=O)[C@H](CCCCN)NC(=O)[C@H](CCCCN)NC(=O)[C@H](CCSC)NC(=O)[C@H](CCCCN)NC(=O)[C@@H](N)CCCCN)C(=O)N[C@@H](CCCCN)C(=O)N[C@@H](CC(C)C)C(=O)N[C@@H](CC(C)C)C(=O)N[C@@H](CCCCN)C(=O)N[C@@H](CCC(=O)O)C(N)=O"
  test_target: "Pseudomonas aeruginosa ATCC 27853"
  reported_result: "> 100 µM"

Query: # input compound: `CC[C@H](C)[C@H](NC(=O)[C@@H]1CCCN1C(=O)[C@H](CCCCN)NC(=O)[C@@H]1CCCN1C(=O)[C@H](CCCN=C(N)N)NC(=O)CNC(=O)[C@@H]1CCCN1C(=O)[C@H](Cc1ccccc1)NC(=O)[C@@H]1CCCN1C(=O)[C@H](CCCN=C(N)N)NC(=O)[C@@H]1CCCN1C(=O)[C@H](CCCN=C(N)N)NC(=O)CN)C(=O)N[C@@H](Cc1ccccc1)C(=O)N[C@@H](CCCN=C(N)N)C(=O)N1CCC[C@H]1C(=O)N[C@@H](CCCN=C(N)N)C(=O)O` ; wanted: its MIC
Reply: 70.7 µM

Query: What MIC value was documented for this compound, `CC(C)C[C@H](NC(=O)[C@H](CCCCN)NC(=O)CNC(=O)[C@@H](N)CO)C(=O)N[C@@H](CS)C(=O)N[C@@H](CS)C(=O)N[C@@H](CCCN=C(N)N)C(=O)N[C@@H](CCCN=C(N)N)C(=O)N[C@@H](CCCCN)C(=O)N[C@@H](CCCCN)C(N)=O` ?
Reply: > 100 µM

Query: Fill in the blank: the reported MIC of `CC(C)C[C@H](NC(=O)[C@H](CC(C)C)NC(=O)[C@H](CCCCN)NC(=O)[C@H](CCCCN)NC(=O)[C@H](CC(C)C)NC(=O)[C@H](Cc1c[nH]c2ccccc12)NC(=O)[C@H](CCCCN)NC(=O)[C@H](CC(C)C)NC(=O)[C@H](CC(C)C)NC(=O)[C@@H](N)CCCCN)C(=O)N[C@@H](CCCCN)C(N)=O` is ____.
Reply: 5.67 µM
